Molecular target: T1, FGFR3 (wild type) on cells (human, UniProt P22607 23-806)
T1 construct: also called FDCP-FR3; FDCP-FGFR3
T1 sequence (P22607 23-806 limits assumed): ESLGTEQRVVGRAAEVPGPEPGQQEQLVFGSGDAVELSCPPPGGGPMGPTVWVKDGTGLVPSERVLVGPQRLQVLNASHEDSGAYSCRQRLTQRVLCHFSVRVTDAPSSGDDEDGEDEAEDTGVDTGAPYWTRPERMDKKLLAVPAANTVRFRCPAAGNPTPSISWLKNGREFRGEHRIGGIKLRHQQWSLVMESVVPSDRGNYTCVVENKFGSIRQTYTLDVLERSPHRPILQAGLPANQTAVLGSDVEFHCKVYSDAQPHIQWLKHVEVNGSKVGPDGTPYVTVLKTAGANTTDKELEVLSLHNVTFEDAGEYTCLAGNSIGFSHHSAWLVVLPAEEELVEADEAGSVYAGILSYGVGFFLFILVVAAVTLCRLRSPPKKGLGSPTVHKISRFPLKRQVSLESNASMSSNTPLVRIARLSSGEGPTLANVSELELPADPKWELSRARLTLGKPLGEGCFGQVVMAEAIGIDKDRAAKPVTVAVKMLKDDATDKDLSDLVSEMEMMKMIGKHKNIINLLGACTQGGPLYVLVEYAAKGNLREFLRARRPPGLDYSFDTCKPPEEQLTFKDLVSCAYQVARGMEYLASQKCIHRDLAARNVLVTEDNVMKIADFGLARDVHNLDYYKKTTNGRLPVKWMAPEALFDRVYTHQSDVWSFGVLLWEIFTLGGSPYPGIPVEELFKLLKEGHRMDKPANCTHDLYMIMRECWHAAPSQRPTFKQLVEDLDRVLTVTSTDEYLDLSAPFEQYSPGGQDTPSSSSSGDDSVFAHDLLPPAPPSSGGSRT
Experiment: indirect FACS-Scatchard
pKd: −log10 of the molar value.
Mark Not fulfilled for pKd values under 9, and Fulfilled for everything at or above.

Example entries begin here.
binder="MSPRO11 (Fab, V domains shown) VH: QVQLVQSGAEVKKPGASVKVSCKASGYTFTSYYMHWVRQAPGQGLEWMGWINPNSGGTNYAQKFQGRVTMTRDTSISTAYMELSSLRSEDTAVYYCARYYGSSLYHYVFGGFIDYWGQGTLVTVSS VL: DIALTQPASVSGSPGQSITISCTGTSSDVGGYNYVSWYQQHPGKAPKLMIYDVSNRPSGVSNRFSGSKSGNTASLTISGLQAEDEADYYCQSHHFYEVFGGGTKLTVLG" cat="Not fulfilled"
binder="MSPRO29 (Fab, V domains shown) VH: QVQLVQSGAEVKKPGASVKVSCKASGYTFTSYYMHWVRQAPGQGLEWMGWINPNSGGTNYAQKFQGRVTMTRDTSISTAYMELSSLRSEDTAVYYCARTWQYSYFYYLDGGYYFDIWGQGTLVTVSS VL: DIVLTQSPATLSLSPGERATLSCRASQSVSSSYLAWYQQKPGQAPRLLIYGASSRATGVPARFSGSGSGTDFTLTISSLEPEDFATYYCQQTNNAPVTFGQGTKVEIKR" cat=Fulfilled
binder="MSPRO12 (Fab, V domains shown, HuCAL Fab, framework VH2_L3) VH: QVQLKESGPALVKPTQTLTLTCTFSGFSLSTSGVGVGWIRQPPGKALEWLALIDWDDDKYYSTSLKTRLTISKDTSKNQVVLTMTNMDPVDTATYYCARYHSWYEMGYYGSTVGYMFDYWGQGTLVTVSS VL: DIELTQPPSVSVAPGQTARISCSGDALGDKYASWYQQKPGQAPVLVIYDDSDRPSGIPERFSGSNSGNTATLTISGTQAEDEADYYCQSYDFDFAVFGGGTKLTVLG" cat="Not fulfilled"
binder="MSPRO2 (Fab, V domains shown) VH: QVQLVQSGAEVKKPGASVKVSCKASGYTFTSYYMHWVRQAPGQGLEWMGWINPNSGGTNYAQKFQGRVTMTRDTSISTAYMELSSLRSEDTAVYYCARDFLGYEFDYWGQGTLVTVSS VL: DIELTQPPSVSVAPGQTARISCSGDALGDKYASWYQQKPGQAPVLVIYDDSDRPSGIPERFSGSNSGNTATLTISGTQAEDEADYYCQSYDYSADYVFGGGTKLTVLG" cat="Not fulfilled"

In the following, a different binder is considered.
Exercise: Determine whether this binder has pKd no lower than 9: MSPRO28 (Fab, V domains shown) VH: QVQLVQSGAEVKKPGSSVKVSCKASGGTFSSYAISWVRQAPGQGLEWMGGIIPIFGTANYAQKFQGRVTITADESTSTAYMELSSLRSEDTAVYYCARGGGWVSHGYYYLFDLWGQGTLVTVSS VL: DIQMTQSPSSLSASVGDRVTITCRASQGISSYLAWYQQKPGKAPKLLIYAASSLQSGVPSRFSGSGSGTDFTLTISSLQPEDFAVYYCFQYGSIPPTFGQGTKVEIKR
Solution: Fulfilled

Attribution: patent US20090202547A1
